Target: p38α (Homo sapiens)
Construct: p38 MAP Kinases are recombinant human full-length proteins with an amino-terminal GST fusion; GST (N)
Test: p38 MAP Kinase assay, ATF2 phosphorylation (ELISA)
Details: 40 μM ATP
Source text: Compounds of the invention are screened for the ability to inhibit ATF2 phosphorylation by p38 MAP Kinase in vitro. […]
readoutType: pIC50
Please report pIC50 as the negative decimal logarithm of the molar concentration, giving only the number.

Give pIC50 for O[C@H]1CC[C@H](Nc2nccc(-c3c(-c4ccc(F)cc4)nc4sccn34)n2)CC1 [CCXXI]
8.80

Give pIC50 for c1ccc(-c2nc3sccn3c2-c2ccnc(NC3CC3)n2)cc1 [CLVII]
8.28

Give pIC50 for Cc1csc2nc(-c3ccc(F)cc3)c(-c3ccnc(NC(CO)CO)n3)n12 [CCIV]
5.00

Give pIC50 for CN(C)CC(C)(C)CNc1nccc(-c2c(-c3ccccc3Cl)nc3occn23)n1 [CCLXXXII]
7.35

Give pIC50 for O[C@H]1CC[C@H](Nc2nccc(-c3c(-c4ccc(F)cc4)nc4occn34)n2)CC1 [LIX]
8.75

Give pIC50 for COc1cccc(-c2nc3sccn3c2-c2ccnc(N[C@H](CO)[C@H](O)c3ccccc3)n2)c1 [CXCVI]
6.09

Give pIC50 for COCCNc1nccc(-c2c(-c3ccc(F)cc3)nc3occn23)n1 [XX]
7.61

Give pIC50 for NC(=O)[C@H](Cc1ccccc1)Nc1nccc(-c2c(-c3ccc(F)cc3)nc3occn23)n1 [CXXVIII]
7.15

Give pIC50 for CCOC(=O)Cc1csc2nc(-c3ccc(F)cc3)c(-c3ccnc(NCc4ccccc4)n3)n12 [CLX]
6.00

====

Target: CK2 (Homo sapiens)
Construct: purchased Upstate (Charlottesville, Va.)
Sequence (P68400 whole entry): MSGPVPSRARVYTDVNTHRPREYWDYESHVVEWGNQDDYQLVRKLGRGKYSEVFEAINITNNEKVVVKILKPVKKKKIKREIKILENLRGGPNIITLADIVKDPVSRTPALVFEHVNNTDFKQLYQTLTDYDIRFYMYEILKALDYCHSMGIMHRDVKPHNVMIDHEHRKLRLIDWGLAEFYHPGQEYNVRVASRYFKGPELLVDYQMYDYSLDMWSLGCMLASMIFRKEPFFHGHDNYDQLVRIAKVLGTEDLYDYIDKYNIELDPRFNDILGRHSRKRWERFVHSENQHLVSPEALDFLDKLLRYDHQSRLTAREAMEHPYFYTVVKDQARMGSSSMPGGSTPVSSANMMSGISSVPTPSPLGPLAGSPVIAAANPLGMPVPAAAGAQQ
Sequence (P67870 whole entry partner): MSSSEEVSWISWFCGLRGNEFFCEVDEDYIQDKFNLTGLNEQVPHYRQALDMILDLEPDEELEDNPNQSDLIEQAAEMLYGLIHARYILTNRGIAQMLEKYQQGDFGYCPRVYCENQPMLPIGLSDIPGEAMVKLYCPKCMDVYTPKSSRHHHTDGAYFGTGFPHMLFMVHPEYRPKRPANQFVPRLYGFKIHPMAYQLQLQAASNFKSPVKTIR
Assay: Broad selectivity panel, 32P incorporation
Format: biochemical
Settings: 1 μM compound, 40 μM ATP; read-out: Percent inhibition CK2
readoutType: inhibition at 1 µM (%)
API: value field is a number in %; no unit string.

Give inhibition at 1 µM for Fc1ccc(-c2nc3occn3c2-c2ccnc(NC3CCNCC3)n2)cc1 [CCLXXX]
32

Give inhibition at 1 µM for CN1[C@@H]2CC[C@H]1C[C@@H](Nc1nccc(-c3c(-c4ccc(F)cc4)nc4occn34)n1)C2 [CCLXXXI]
16

Give inhibition at 1 µM for CS(=O)(=O)N1CCC(Nc2nccc(-c3c(-c4ccc(F)cc4)nc4occn34)n2)CC1 [CCLXXIX]
4

====

Please respond with reported IC50 for every item in the list.
Target: p38α (Homo sapiens)
Construct: p38 MAP Kinases are recombinant human full-length proteins with an amino-terminal GST fusion; GST (N)
Assay: p38 MAP Kinase assay, ATF2 phosphorylation (ELISA)
Settings: 40 μM ATP
API: value field is a number in nM; no unit string.

Give IC50 for CC(C)(C)OC(=O)N1CCC(Nc2nccc(-c3c(-c4ccccc4Cl)nc4occn34)n2)CC1
8.2

Give IC50 for CC(C)(C)OC(=O)N1CCCC1CNc1nccc(-c2c(-c3ccc(F)cc3)nc3sccn23)n1 (stereo not drawn)
7.26

Give IC50 for Fc1ccc(-c2nc3sccn3c2-c2ccnc(N3CCOCC3)n2)cc1
129

Give IC50 for O=C1CCCN1CCCNc1nccc(-c2c(-c3ccc(F)cc3)nc3occn23)n1
33.4

Give IC50 for Fc1ccc(-c2nc3occn3c2-c2ccnc(NCCN3CCOCC3)n2)cc1
75.9

Give IC50 for COc1cccc(-c2nc3sccn3c2-c2ccnc(N[C@H](CO)C(C)C)n2)c1 [CCLXX]
112

Give IC50 for Oc1ccc(CCNc2nccc(-c3c(-c4ccc(F)cc4)nc4occn34)n2)cc1
3.45

Give IC50 for Fc1ccc(CNc2nccc(-c3c(-c4ccc(F)cc4)nc4occn34)n2)cc1
90.9

Give IC50 for c1ccc(-c2nc3sccn3c2-c2ccnc(NCc3ccccn3)n2)cc1
91.1

Give IC50 for OC[C@@H](Nc1nccc(-c2c(-c3ccc(F)cc3)nc3sccn23)n1)[C@H](O)c1ccccc1
565

Give IC50 for C[C@@H](Nc1nccc(-c2c(-c3ccc(F)cc3)nc3occn23)n1)[C@@H](O)c1ccc(O)cc1
6.72

Give IC50 for CC(=O)N1CCC(Nc2nccc(-c3c(-c4ccc(F)cc4F)nc4occn34)n2)CC1
3

Give IC50 for COC[C@H](C)Nc1nccc(-c2c(-c3ccc(F)cc3)nc3occn23)n1
19

Give IC50 for OCC(CO)Nc1nccc(-c2c(-c3ccc(F)cc3)nc3occn23)n1
13

Give IC50 for CC(=O)N1CCC(Nc2nccc(-c3c(-c4ccc(F)cc4)nc4occn34)n2)CC1
2.38

Give IC50 for CC(=O)N1CCC(Nc2nccc(-c3c(-c4ccc(F)cc4)nc4sccn34)n2)CC1
1.65

Give IC50 for CC(C)CNC(=O)Cc1csc2nc(-c3ccc(F)cc3)c(-c3ccnc(NCC(C)C)n3)n12
1000

Give IC50 for CSc1nccc(-c2c(-c3ccc(F)cc3)nc3sccn23)n1
635

Give IC50 for C[C@@H](Nc1nccc(-c2c(-c3ccc(F)cc3)nc3occn23)n1)C(N)=O
29.4

Give IC50 for OC1(CNc2nccc(-c3c(-c4ccc(F)cc4)nc4occn34)n2)CCCc2ccccc21 (stereo not drawn)
27.2

Give IC50 for CCC(O)CNc1nccc(-c2c(-c3ccc(F)cc3)nc3occn23)n1 (stereo not drawn)
15.7

Give IC50 for Fc1ccc(-c2nc3occn3c2-c2ccnc(NC[C@H]3CCCO3)n2)cc1
11.7

Give IC50 for CN(CCO)c1nccc(-c2c(-c3ccc(F)cc3)nc3occn23)n1
969

Give IC50 for CC(=O)N1CCC(Nc2nccc(-c3c(-c4ccccc4Cl)nc4occn34)n2)CC1
2.3

Give IC50 for COc1ccc(CCNc2nccc(-c3c(-c4ccc(F)cc4)nc4occn34)n2)cc1
7.88

Give IC50 for FC(F)(F)c1cccc(-c2nc3occn3c2-c2ccnc(NC3CCNCC3)n2)c1
21.2

Give IC50 for CCC(O)CNc1nccc(-c2c(-c3ccc(F)cc3)nc3sccn23)n1 (stereo not drawn)
3.28

Give IC50 for Fc1ccc(-c2nc3occn3c2-c2ccnc(NCCN3CCCCC3)n2)cc1
236

Give IC50 for c1ccc(-c2nc3sccn3c2-c2ccnc(NCc3ccco3)n2)cc1
15.6

Give IC50 for c1ccc(-c2nc3sccn3c2-c2ccnc(NCC3CCCCC3)n2)cc1
65.7

Give IC50 for CN1[C@@H]2CC[C@H]1C[C@@H](Nc1nccc(-c3c(-c4cccc(C(F)(F)F)c4)nc4occn34)n1)C2
9.3

Give IC50 for OCC1(Nc2nccc(-c3c(-c4ccc(F)cc4)nc4occn34)n2)CCCC1
30.2

Give IC50 for CN(C)CC(C)(C)CNc1nccc(-c2c(-c3ccc(F)cc3F)nc3occn23)n1
6.1

Give IC50 for Fc1ccc(CNc2nccc(-c3c(-c4ccc(F)cc4)nc4sccn34)n2)cc1
54.1

Give IC50 for Fc1ccc(-c2nc3occn3c2-c2ccnc(NCCc3ccncc3)n2)cc1
8.06

Give IC50 for COc1cccc(-c2nc3sccn3c2-c2ccnc(NCCOCCO)n2)c1
428

====

Target: p38α (Homo sapiens, UniProt Q16539)
Construct: p38 MAP Kinases are recombinant human full-length proteins with an amino-terminal GST fusion; GST (N); purchased Upstate (Charlottesville, Va.); host or cells: E. coli
Sequence (Q16539 whole entry, the tested form may be a part): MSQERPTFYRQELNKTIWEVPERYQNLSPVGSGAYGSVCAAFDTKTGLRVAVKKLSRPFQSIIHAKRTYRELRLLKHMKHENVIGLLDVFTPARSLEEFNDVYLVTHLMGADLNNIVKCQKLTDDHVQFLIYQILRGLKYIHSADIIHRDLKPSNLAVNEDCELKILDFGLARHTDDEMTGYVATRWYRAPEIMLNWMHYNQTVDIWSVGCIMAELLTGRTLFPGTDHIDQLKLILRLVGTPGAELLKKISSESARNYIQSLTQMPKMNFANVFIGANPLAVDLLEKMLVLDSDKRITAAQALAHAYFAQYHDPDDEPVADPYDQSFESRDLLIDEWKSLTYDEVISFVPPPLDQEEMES
Assay: p38 MAP Kinase assay, ATF2 phosphorylation (ELISA)
Format: biochemical
Details: 40 μM ATP
readoutType: log10 of IC50 (log10 of the value in µM)
Recall that a logarithmic scale is used here: each number is log10 of IC50 in µM.

Identify measured log10 of IC50 obtained with p38α (Homo sapiens, UniProt Q16539) for CC(C)(C)OC(=O)N1CCCC(Nc2nccc(-c3c(-c4ccc(F)cc4)nc4sccn34)n2)C1 (stereo not drawn) .
-1.53

Identify measured log10 of IC50 obtained with p38α (Homo sapiens, UniProt Q16539) for Oc1cccc(C(O)CNc2nccc(-c3c(-c4ccc(F)cc4)nc4occn34)n2)c1 (stereo not drawn) .
-2.29

Identify measured log10 of IC50 obtained with p38α (Homo sapiens, UniProt Q16539) for CCCC[C@H](CO)Nc1nccc(-c2c(-c3ccc(F)cc3)nc3occn23)n1 .
-1.95

Identify measured log10 of IC50 obtained with p38α (Homo sapiens, UniProt Q16539) for Fc1ccc(-c2nc3sccn3c2-c2ccnc(NCC3CC3)n2)cc1 .
-1.88

Identify measured log10 of IC50 obtained with p38α (Homo sapiens, UniProt Q16539) for CC(C)(C)OC(=O)N1CCCC(CNc2nccc(-c3c(-c4ccc(F)cc4)nc4sccn34)n2)C1 (stereo not drawn) .
-1.09

Identify measured log10 of IC50 obtained with p38α (Homo sapiens, UniProt Q16539) for Fc1ccc(-c2nc3occn3c2-c2ccnc(NCc3ccco3)n2)cc1 .
-2.23

Identify measured log10 of IC50 obtained with p38α (Homo sapiens, UniProt Q16539) for Fc1ccc(-c2nc3sccn3c2-c2ccnc(NCCN3CCN(Cc4ccccc4)CC3)n2)cc1 .
-1.24

Identify measured log10 of IC50 obtained with p38α (Homo sapiens, UniProt Q16539) for Cc1ccccc1-c1nc2occn2c1-c1ccnc(N[C@@H]2CN3CCC2CC3)n1 .
-1.79

Identify measured log10 of IC50 obtained with p38α (Homo sapiens, UniProt Q16539) for CSc1nccc(-c2c(-c3ccc(F)cc3)nc3occn23)n1 .
0.05
